Experiment: Single ascending dose study NP10679-101, plasma pharmacokinetics
Type: in vivo, human
Conditions: human, plasma, intravenous, volume of distribution, SAD
measurement.type: Vd

Which measured Vd value corresponds to `O=C1CCc2cc(OC[C@H](O)CN3CCN(c4ccc(C(F)(F)F)cc4)CC3)ccc2N1` ?
> 221 L

---

Experiment: Multiple ascending dose study NP10679-102, plasma pharmacokinetics
Type: in vivo
Conditions: human, iv, 25 mg, AUC 0–24, MAD, 25 mg IV once daily, day 4
measurement.type: AUC(0-t) (ng·h/mL)
Write down the numeric answer in ng·h/mL and omit the unit.

Would you kindly share the measured AUC(0-t) for `O=C1CCc2cc(OC[C@H](O)CN3CCN(c4ccc(C(F)(F)F)cc4)CC3)ccc2N1` ?
2170

Numbers sourced from paper PMC10329973.
